Value source: PubChem BioAssay AID2842

Below, each entry is listed alongside its reported IC90.
# Tested on: M. tuberculosis H37Rv growth inhibition
# method-description: Mycobacterium tuberculosis H37Rv growth inhibition, putative kinase inhibitor library, confirmatory dose response (AID 2842);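 note: bacteria incubated one week before Alamar blue readout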

Cc1nc2ccccc2c(=O)n1-c1cccc(NC(=O)c2cc([N+](=O)[O-])cc([N+](=O)[O-])c2)c1 :: 27.8 µg/mL

Tell me its IC90 on M. tuberculosis H37Rv growth inhibition: CCC(=O)Nc1nnc(-c2cccs2)o1 17.1 µg/mL

State, for M. tuberculosis H37Rv growth inhibition, measured IC90 of the compound listed here: Cc1ccc(C)c(-c2nnc(NC(=O)c3ccc(Cl)s3)o2)c1 26.4 µg/mL

Quote M. tuberculosis H37Rv growth inhibition IC90 for entry O=C(Nc1nnc(-c2ccco2)o1)c1ccc([N+](=O)[O-])cc1 . 35.8 µg/mL

====

# Test system: M. tuberculosis H37Rv growth inhibition
# method-description: Mycobacterium tuberculosis H37Rv growth inhibition, putative kinase inhibitor library, confirmatory dose response (AID 2842);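 note: bacteria incubated one week before Alamar blue readout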
recorded-metric: IC90

CCS(=O)(=O)c1cccc(C(=O)Nc2nnc(-c3cc(C)ccc3C)o2)c1 :: 9.12 µg/mL

Tell me IC90 of O=C(Nc1nnc(-c2ccc(Br)cc2)o1)c1cc(Cl)sc1Cl when tested on M. tuberculosis H37Rv growth inhibition. 3.43 µg/mL

Please report the measured IC90 for COc1cc2c3nnc(-c4ccc(C)cc4)c-3cn(Cc3cccc(C)c3)c2cc1OC tested on M. tuberculosis H37Rv growth inhibition. 28.3 µg/mL

Quote M. tuberculosis H37Rv growth inhibition IC90 for entry O=C(Nc1nnc(C2=COCCO2)o1)c1ccc(Cc2ccccc2)cc1 . 28.1 µg/mL

====

# Test system: M. tuberculosis H37Rv growth inhibition
# method-description: Mycobacterium tuberculosis H37Rv growth inhibition, putative kinase inhibitor library, confirmatory dose response (AID 2842);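 note: bacteria incubated one week before Alamar blue readout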
Catalogue of IC90 values

Illustrative cases are given below, each with its answer.
Cc1cc(C)c2nc(NNC(=O)c3nc4ccccc4s3)sc2c1 :: 4.23 µg/mL
O=C(Nc1ncc(Cc2ccccc2Cl)s1)c1cccs1 :: 18.3 µg/mL
Cc1ccc(C)c2sc(N(CCCn3ccnc3)C(=O)COc3ccccc3)nc12 :: 6.05 µg/mL

Please indicate IC90 recorded for COc1cccc(/C=N/Nc2nc(=O)[nH]nc2C)c1O 0.5 µg/mL

Determine its reported IC90: O=C(CSc1nnc(-c2ccncc2)o1)N1CCCCC1 14.2 µg/mL

Annotate the compound CCOc1ccc2nc(Nc3nc4ccc(NC(C)=O)cc4s3)sc2c1 with its measured IC90. 7.84 µg/mL

====

# Tested on: M. tuberculosis H37Rv growth inhibition
# method-description: Mycobacterium tuberculosis H37Rv growth inhibition, putative kinase inhibitor library, confirmatory dose response (AID 2842);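 note: bacteria incubated one week before Alamar blue readout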
recorded-metric: IC90

CCOC(=O)COc1ccc2c(C)c(-c3ccc(OC)c(OC)c3)c(=O)oc2c1 :: 2.34 µg/mL
CC(=O)N1CCc2c(sc(NC(=O)c3cccs3)c2C(N)=O)C1 :: 3.21 µg/mL
COC(=O)c1c(C)oc2ccc(OCC(=O)OC(C)C)cc12 :: 7.05 µg/mL
COc1cc2c3nnc(-c4ccc(F)cc4)c-3cn(Cc3ccccc3)c2cc1OC :: 12 µg/mL
O=c1cnnc(N/N=C/c2ccccc2O)[nH]1 :: 0.46 µg/mL

Using known records, supply IC90 for Cc1ccc(-c2nnc3c4cc5c(cc4n(Cc4cccc(C)c4)cc2-3)OCCO5)cc1 5.76 µg/mL

Please indicate IC90 recorded for CS(=O)(=O)NNc1ccc([N+](=O)[O-])cc1[N+](=O)[O-] 11.6 µg/mL

// Input: COc1ccc(C(=O)/C=C2\C(=O)Nc3ccccc32)cc1 . Output its IC90 only. 38.6 µg/mL

Report IC90, nothing else, for this molecule: CC1CCCN(Cc2c(O)ccc3c(=O)c(-c4nc5ccccc5s4)c(N)oc23)C1 (stereo unspecified) 2.89 µg/mL

Annotate the molecule CCOC(=O)N1CCc2c(sc(NC(=O)CCOc3ccccc3)c2C(N)=O)C1 with its measured IC90. 12.4 µg/mL

In one line, give reported IC90 of the entry COc1ccc(-c2nnc(SCC(=O)Nc3cc(C)on3)o2)cc1 . 6.72 µg/mL
